The values you see were collected from patent US20180161428A1.

Target: T1, hFc · flag · hPSMA (human, UniProt Q04609 44-750)
T1 construct: The order of the parts follows the printed label; also called human PSMA; h PSMA-Fc; not shown: human Fc (hFc); flag tag
T1 sequence (Q04609 44-750 limits assumed): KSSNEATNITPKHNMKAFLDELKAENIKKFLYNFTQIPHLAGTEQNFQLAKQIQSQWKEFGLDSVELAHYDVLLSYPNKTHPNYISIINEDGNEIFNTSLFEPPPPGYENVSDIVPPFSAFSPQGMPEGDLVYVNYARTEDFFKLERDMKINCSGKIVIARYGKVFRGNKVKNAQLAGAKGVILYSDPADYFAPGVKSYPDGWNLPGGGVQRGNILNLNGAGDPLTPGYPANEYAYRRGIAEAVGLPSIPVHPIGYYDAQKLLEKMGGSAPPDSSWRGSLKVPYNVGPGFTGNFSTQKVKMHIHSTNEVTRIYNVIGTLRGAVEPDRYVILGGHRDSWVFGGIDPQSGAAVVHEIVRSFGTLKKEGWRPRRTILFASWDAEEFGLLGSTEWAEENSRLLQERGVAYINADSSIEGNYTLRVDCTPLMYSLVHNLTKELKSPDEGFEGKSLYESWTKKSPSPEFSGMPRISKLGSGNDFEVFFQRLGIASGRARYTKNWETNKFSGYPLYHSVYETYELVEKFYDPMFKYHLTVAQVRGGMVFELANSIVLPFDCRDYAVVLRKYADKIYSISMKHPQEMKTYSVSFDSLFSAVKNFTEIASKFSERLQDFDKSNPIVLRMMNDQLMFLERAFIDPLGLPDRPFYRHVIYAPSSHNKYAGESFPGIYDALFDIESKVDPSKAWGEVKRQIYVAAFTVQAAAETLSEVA
Experiment: BLI (OCTET), expression supernatants, hFc.flag.hPSMA
readout: pKd
# pKd: negative log10 of molar concentration; output just the value

Examples from the recorded data:
binder: anti-PSMA S33H T50D G97SsdAb.6his (VHH) VHH: EVQLVESGGGLVQPGGSLTLSCAASRFMISEYHMHWVRQAPGKGLEWVSDINPAGTTDYAESVKGRFTISRDNAKNTLYLQMNSLKPEDTAVYYCDSYGYRGQGTQVTVSS
pKd: 8.17
//
binder: Anti-PSMA wt sdAb.6his (VHH, Tested as supernatant of Expi293 cells; also called parental sdAb; parental anti-PSMA single domain antibody) VHH: EVQLVESGGGLVQPGGSLTLSCAASRFMISEYSMHWVRQAPGKGLEWVSTINPAGTTDYAESVKGRFTISRDNAKNTLYLQMNSLKPEDTAVYYCDGYGYRGQGTQVTVSS
pKd: 7.82
//
binder: anti-PSMA S33H G97SsdAb.6his (VHH) VHH: EVQLVESGGGLVQPGGSLTLSCAASRFMISEYHMHWVRQAPGKGLEWVSTINPAGTTDYAESVKGRFTISRDNAKNTLYLQMNSLKPEDTAVYYCDSYGYRGQGTQVTVSS
pKd: 9.68
//
binder: anti-PSMA G55K sdAb.6his (VHH) VHH: EVQLVESGGGLVQPGGSLTLSCAASRFMISEYSMHWVRQAPGKGLEWVSTINPAKTTDYAESVKGRFTISRDNAKNTLYLQMNSLKPEDTAVYYCDGYGYRGQGTQVTVSS
pKd: 8.35

stdin: For the binder shown here, anti-PSMA T56Q sdAb.6his (VHH) VHH: EVQLVESGGGLVQPGGSLTLSCAASRFMISEYSMHWVRQAPGKGLEWVSTINPAGQTDYAESVKGRFTISRDNAKNTLYLQMNSLKPEDTAVYYCDGYGYRGQGTQVTVSS , give the reported pKd.
stdout: 8.25

stdin: Similarly, anti-PSMA E31P sdAb.6his (VHH) VHH: EVQLVESGGGLVQPGGSLTLSCAASRFMISPYSMHWVRQAPGKGLEWVSTINPAGTTDYAESVKGRFTISRDNAKNTLYLQMNSLKPEDTAVYYCDGYGYRGQGTQVTVSS ?
stdout: 8.02
